Values from ChEMBL document CHEMBL1137358

test system: CYP2A6 over CYP2C9; experiment: Selectivity for CYP2A6 over CYP2C9; conditions: human
Measured selectivity ratio values are reported for all entries that follow.

Exercise: Provide the documented selectivity ratio with CYP2A6 over CYP2C9 as the system for Cc1ccsc1-c1ccc(F)nc1
Solution: > 310

Exercise: State its selectivity ratio on CYP2A6 over CYP2C9: c1ccc(-c2ccsc2)cc1
Solution: > 32.3

Exercise: Query selectivity ratio on CYP2A6 over CYP2C9 for NCCCc1cccnc1
Solution: > 30

New cases:
Exercise: What reported selectivity ratio corresponds to CN(C)CC#Cc1cccnc1 on CYP2A6 over CYP2C9?
Solution: > 3
